Test system: RPMI-8226 leukemia
Assay: NCI tumour cell line growth inhibition, 48 h
Endpoint: TGI (µM)
Give bare numbers, in µM.

Before answering, review these 3 worked examples.
>>> val("O=c1oc2ccc(Br)cc2c(=O)n1-c1ccc(Br)cc1F")
1.06
>>> val("CCCc1cn2c(/C=N/N=C(N)N)c(-c3c(OC)ccc(OC)c3[N+](=O)[O-])nc2s1")
8.7
>>> val("CCN1C(C)(C)CC(Oc2ccc(C(=O)Nc3ccc(NC(=O)Nc4cc(C(C)(C)C)on4)cc3)nc2)CC1(C)C")
4.72

Give TGI for each listed item.
1. Clc1ccc(Nc2nnc(CNc3ccccc3)c3ccccc23)cc1
2. COc1ccc(-c2nc(N)n(C)c2SSc2c(-c3ccc(OC)cc3)nc(N)n2C)cc1

7.71
7.46

---

System: A498 renal
Experiment: NCI tumour cell line growth inhibition, 48 h; in the data active = GI50 below about 0.43 µM; inactive = the rest
Use one of these outcomes when replying: t = active, f = inactive

Example entries begin here.
>>> answer_label("O=C1/C(=C\\c2ccc(Cl)cc2)CCOc2c1ccc1ccccc21")
"f"
>>> answer_label("Oc1c(I)cc(I)cc1CNCCN(Cc1ccccn1)Cc1ccccn1")
"f"
>>> answer_label("Clc1nc(Cl)c2ncn(C/C=C\\COc3cccc(OC/C=C\\Cn4cnc5c(Cl)nc(Cl)nc54)c3)c2n1")
"f"
>>> answer_label("O=C(/C=C/c1cccs1)c1ccc(Cl)cc1Cl")
"f"
>>> answer_label("CCC(=O)c1c(C(F)(F)F)n([O-])c2cc(N3CCNCC3)c(F)cc2[n+]1=O")
"f"
>>> answer_label("CSc1nc(N)cc(Oc2ccc(-c3nc(Nc4cccc(C(F)(F)F)c4)n[nH]3)cc2)n1")
"f"

// return assay outcome for NC1CCCCC1N.O=C([O-])c1cc(S(=O)(=O)Nc2cc(S(=O)(=O)[O-])cc3cc(S(=O)(=O)[O-])cc(O)c23)ccc1[O-].[Pt+4]
f

// return assay outcome for COc1cc(C2CC(c3cccc(Nc4ccnc5cc(Cl)ccc45)c3)=NN2C=O)cc(OC)c1OC (stereo not given)
t

// return assay outcome for N[C@H]1C[C@@H]1c1ccc(-c2cccc(O)c2)cc1
f

// return assay outcome for O=C1C(Br)=CC2C1C1C3CCC3C2(Br)C12OCCO2 (stereo not given)
f

---

Tested on: MDA-MB-231 breast
Test: NCI tumour cell line growth inhibition, 48 h
Endpoint: GI50

Give GI50 for each listed item.
1. Cn1cc(C2=C(Oc3ccccc3)C(=O)NC2=O)c2ccccc21
2. CSc1nc(N)cc(Oc2ccc(-c3nc(Nc4cccc(C(F)(F)F)c4)n[nH]3)cc2)n1

["> 19300 nM", "1790 nM"]

---

System: A498 renal
Assay: NCI tumour cell line growth inhibition, 48 h
Provide the recorded GI50 for the entries that follow.

Give GI50 for each listed item.
1. COc1cc(-c2cc(/C=C3\C(=O)Nc4cc(Cl)ccc43)[nH]n2)cc(OC)c1OC
2. C/C(=C1\SC(=NCc2cccs2)NC1=O)c1ccc2ncccc2c1
3. CCCN1CCN(c2ccc3nc(-c4ccc5nc(-c6ccc(C(F)(F)F)cc6)[nH]c5c4)[nH]c3c2)CC1

["2240 nM", "13500 nM", "1870 nM"]

---

System: UO-31 renal
Assay: NCI tumour cell line growth inhibition, 48 h
Provide the recorded TGI for the entries that follow.
Numbers only, in µM.

Give TGI for each listed item.
1. C=CCNCCN1C(=O)c2ccc3c4c(ccc(c24)C1=O)C(=O)N(CCNCC=C)C3=O
2. [C-]#[O+].[C-]#[O+].[C-]#[O+].[C-]#[O+].[O-]C(c1ccccc1[PH+]1OC(C(F)(F)F)(C(F)(F)F)c2ccccc21)(C(F)(F)F)C(F)(F)F.[Re] (centres undefined)

1. 1.69
2. 7.02

All figures here come from PubChem BioAssay (NCI).
